system: hTLR7 (Homo sapiens)
Construct: expressed in transfected cells; host or cells: HEK-Blue hTLR7 reporter cell line
Sequence (Q9NYK1 27-1049): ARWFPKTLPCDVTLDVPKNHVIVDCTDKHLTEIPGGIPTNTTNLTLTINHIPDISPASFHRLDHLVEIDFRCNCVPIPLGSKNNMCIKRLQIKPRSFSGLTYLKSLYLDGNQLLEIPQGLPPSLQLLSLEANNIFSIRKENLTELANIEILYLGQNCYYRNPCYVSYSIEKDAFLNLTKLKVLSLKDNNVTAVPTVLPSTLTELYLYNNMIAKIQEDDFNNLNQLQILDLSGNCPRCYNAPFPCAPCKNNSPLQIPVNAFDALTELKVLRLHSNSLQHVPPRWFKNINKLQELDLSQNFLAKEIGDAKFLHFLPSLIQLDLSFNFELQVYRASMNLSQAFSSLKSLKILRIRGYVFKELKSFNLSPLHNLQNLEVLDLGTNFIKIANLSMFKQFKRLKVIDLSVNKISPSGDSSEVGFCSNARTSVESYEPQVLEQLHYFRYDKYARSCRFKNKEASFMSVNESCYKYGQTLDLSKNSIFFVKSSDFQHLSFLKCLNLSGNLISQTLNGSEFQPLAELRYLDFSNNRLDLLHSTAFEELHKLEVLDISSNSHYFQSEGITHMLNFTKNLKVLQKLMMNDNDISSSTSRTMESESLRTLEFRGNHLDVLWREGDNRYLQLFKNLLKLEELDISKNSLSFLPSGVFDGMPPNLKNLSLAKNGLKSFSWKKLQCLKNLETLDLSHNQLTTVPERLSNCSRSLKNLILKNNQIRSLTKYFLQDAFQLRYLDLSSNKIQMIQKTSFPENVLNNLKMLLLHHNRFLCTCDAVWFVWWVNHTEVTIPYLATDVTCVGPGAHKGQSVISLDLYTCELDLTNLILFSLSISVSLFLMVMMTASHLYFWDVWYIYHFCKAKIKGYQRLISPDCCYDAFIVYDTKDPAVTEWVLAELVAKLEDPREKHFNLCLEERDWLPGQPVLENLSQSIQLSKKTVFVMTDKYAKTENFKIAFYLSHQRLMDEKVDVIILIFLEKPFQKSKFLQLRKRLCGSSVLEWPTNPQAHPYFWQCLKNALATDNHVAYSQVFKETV
procedure_text: HEK-Blue hTLR7 reporter assay (NF-kB-induced SEAP, Quanti-Blue)
Type: cell-based
assay_context: Table 12, TLR7 agonists attached to a linker; read-out: TLR Agonist Payload + Linkers EC50
assay_endpoint: EC50 (nM)

>  <smiles_entry>
CCCCNc1nc(N)c2[nH]c(=O)n(Cc3ccc(NCCN(C)CCNC(=O)CCOCCOCCOCCOCCON)nc3)c2n1

>  <assay_endpoint>
EC50

>  <readout_units>
nM

>  <relational_operator>
>

>  <readout_value>
10000

$$$$
>  <smiles_entry>
CCCCOc1nc(N)c2[nH]c(=O)n(Cc3ccc(CN4CCC(CCNC(=O)CCOCCON)CC4)cc3)c2n1

>  <assay_endpoint>
EC50

>  <readout_units>
nM

>  <relational_operator>
=

>  <readout_value>
410

$$$$
>  <smiles_entry>
CCCCOc1nc(N)c2[nH]c(=O)n(Cc3ccc(CNC(=O)CCOCCON)cc3)c2n1

>  <assay_endpoint>
EC50

>  <readout_units>
nM

>  <relational_operator>
=

>  <readout_value>
864

$$$$

---

system: hTLR7 (Homo sapiens, UniProt Q9NYK1)
Construct: expressed in transfected cells; host or cells: HEK-Blue hTLR7 reporter cell line
procedure_text: HEK-Blue hTLR7 reporter assay (NF-kB-induced SEAP, Quanti-Blue)
Format: cell-based
assay_context: Table 15, drug linker; read-out: TLR Agonist + Linker (DL) - EC50
pEC50: −log10 of the molar value.

>  <compound>
CCCCNc1nc(N)c2[nH]c(=O)n(Cc3ccc(OCCN(C)C)nc3)c2n1 [DSR-6434, reference compound]

>  <pEC50>
7.82

$$$$
>  <compound>
CCCCOc1nc(N)c2[nH]c(=O)n(Cc3ccc(N4CCC(CCNC(=O)CCOCCON)CC4)nc3)c2n1 [AXC-876]

>  <pEC50>
6.44

$$$$
>  <compound>
CCCCOc1nc(N)c2[nH]c(=O)n(Cc3ccc(CN4CCC(CCNC(=O)CON)CC4)cc3)c2n1 [AXC-879]

>  <pEC50>
6.82

$$$$
>  <compound>
CCCCOc1nc(N)c2[nH]c(=O)n(Cc3ccc(CNC(=O)CCOCCON)cc3)c2n1 [AXC-863]

>  <pEC50>
6.06

$$$$
>  <compound>
CCCCOc1nc(N)c2[nH]c(=O)n(Cc3ccc(CNCCCCCCNC(=O)CON)cc3)c2n1 [AXC-882]

>  <pEC50>
6.26

$$$$
>  <compound>
CCCCNc1nc(N)c2[nH]c(=O)n(Cc3ccc(N4CCN(CCNC(=O)CON)CC4)nc3)c2n1 [AXC-867]

>  <pEC50>
6.08

$$$$
>  <compound>
CCCCOc1nc(N)c2[nH]c(=O)n(Cc3ccc(CNC(=O)CON)cc3)c2n1 [AXC-862]

>  <pEC50>
6.40

$$$$
>  <compound>
CCCCOc1nc(N)c2[nH]c(=O)n(Cc3ccc(CN4CCC(CCNC(=O)CCOCCON)CC4)cc3)c2n1 [AXC-880]

>  <pEC50>
6.39

$$$$
